This listing pairs sequences with measured cleaved RNA product abundance.
# System: Bacillus subtilis
# assay notes: cleaved RNA product abundance (RNA/gDNA barcode ratio) relative to median wild-type variant (ratio to wild type); higher = more accumulation of the downstream cleavage product
# reported conditions: experiment (reporter, strain, medium): exp 4a: truncated aprE reporter, strain BJT201 with 2% xylose (RNase J1 expressed); cleavage site: cggR-gapA (positions -7 to +36 mutated)
Please reply with the number alone, leaving off any unit.

Item ACAGACGAAGGAGCCGCAAAGAACTTATTAAGGGATGAGTAATCCCTCAATATAAATATCTCTCACTTATTTAAA with Bacillus subtilis - cleaved RNA product abundance? 0.421

Item ACAGACGAAGGAGCCGCAAAGAAGTTATTAAGGGATGAATAATCCCTCAAAAGAAATATCTCTCACTTATTTAAA with Bacillus subtilis - cleaved RNA product abundance? 0.0815

Item ACAGACGAAGGAGCCGCAAAGAAGTTATTAAAGGATGAATAATTCCTCAATATAAATATCTCTCACTTATTTAAA with Bacillus subtilis - cleaved RNA product abundance? 0.172

Item ACAGACGAAGGAGCCGCAAAGAAGCTATTAAGGGATGAATAATCCCTCAATATAAAAATCTCTCACTTATTTAAA with Bacillus subtilis - cleaved RNA product abundance? 0.713

Item ACAGACGAAGGAGCCGCAAAGAAGTGATTAAAGGATGAATAATCCCTCAATATAAATATCTCTCACTTATTTAAA with Bacillus subtilis - cleaved RNA product abundance? 0.19

Item ACAGACGAAGGAGCCGCAATGTAGTTATTAAGGGATGAATAATCCCTCAATATAAATATCTCTCACTTATTTAAA with Bacillus subtilis - cleaved RNA product abundance? 1.43

Item ACAGACGAAGGAGCCGCAAAAAAGTTATTAAGGGATGAAGAATCCCTCAATATAAATATCTCTCACTTATTTAAA with Bacillus subtilis - cleaved RNA product abundance? 0.918

Item ACAGACGAAGGAGCCGCAAAGAAGTTATTAAGGGATGAATTATCCCTCAATATATATATCTCTCACTTATTTAAA with Bacillus subtilis - cleaved RNA product abundance? 0.616

Item ACAGACGAAGGAGCCGCAAAGAAGTTATTAAGGGATGAATGATCCCTCAATCTAAATATCTCTCACTTATTTAAA with Bacillus subtilis - cleaved RNA product abundance? 0.0934

Item ACAGACGAAGGAGCCGCAAGGAAGTTATTAAGGGATGAAAAATCCCTCAATATAAATATCTCTCACTTATTTAAA with Bacillus subtilis - cleaved RNA product abundance? 0.663

Item ACAGACGAAGGAGCCGCAACGAAGTTATTAAGTGATGAATAATCCCTCAATATAAATATCTCTCACTTATTTAAA with Bacillus subtilis - cleaved RNA product abundance? 0.13

Item ACAGACGAAGGAGCCGCAAATAAGTTATTAAGGGATGAATAATCCCTCAATATTAATATCTCTCACTTATTTAAA with Bacillus subtilis - cleaved RNA product abundance? 0.156

Item ACAGACGAAGGAGCCGCAAAGAAGTTATTAAGTGATGAATAATCCCTCAATATAAACATCTCTCACTTATTTAAA with Bacillus subtilis - cleaved RNA product abundance? 0.116

Item ACAGACGAAGGAGCCGCAAAGAGGTTATTAAGGGATGAATAATCCGTCAATATAAATATCTCTCACTTATTTAAA with Bacillus subtilis - cleaved RNA product abundance? 0.296

Item ACAGACGAAGGAGCCGCCAAGAAGTTATTAAGGGATGAATAATCACTCAATATAAATATCTCTCACTTATTTAAA with Bacillus subtilis - cleaved RNA product abundance? 0.102

Item ACAGACGAAGGAGCCGCAAAGAAGATATTAAGGGATGAATAATCCCTCAATATAAATATCTCTCACTTATTTAAA with Bacillus subtilis - cleaved RNA product abundance? 0.751

Item ACAGACGAAGGAGCCGCAAAGAAGCTATTAAGGGACGAATAATCCCTCAATATAAATATCTCTCACTTATTTAAA with Bacillus subtilis - cleaved RNA product abundance? 0.436

Item ACAGACGAAGGAGCCGCAAAGAAGTTTTTAAGGGATGAATAATCCCTCAATAAAAATATCTCTCACTTATTTAAA with Bacillus subtilis - cleaved RNA product abundance? 0.0781

Item ACAGACGAAGGAGCCGCAAAGAAGTTATTAAAGGATGAATAATCCCCCAATATAAATATCTCTCACTTATTTAAA with Bacillus subtilis - cleaved RNA product abundance? 0.156

Item ACAGACGAAGGAGCCGCAAAGAAGTTATTAAGGGATGAATAATCCCTCAATATAAATAGCTCTCACTTATTTAAA with Bacillus subtilis - cleaved RNA product abundance? 0.616

Item ACAGACGAAGGAGCCGCAAAGAAGTAATTAAGGGATGTATAATCCCTCAATATAAATATCTCTCACTTATTTAAA with Bacillus subtilis - cleaved RNA product abundance? 0.346

Item ACAGACGAAGGAGCCGCAAAGAAGTTATTAAGGGATGAATAATCCATCAATATAAATAACTCTCACTTATTTAAA with Bacillus subtilis - cleaved RNA product abundance? 0.185

src = the supplement of paper PMC11780869
